Biological target: T1, hPTK7-His (soluble His-tagged human PTK7 extracellular domain) (human, UniProt Q13308 31-704)
T1 construct: also called PTK7-ECD-His; monomeric recombinant hPTK7-His (isoform a)
T1 sequence: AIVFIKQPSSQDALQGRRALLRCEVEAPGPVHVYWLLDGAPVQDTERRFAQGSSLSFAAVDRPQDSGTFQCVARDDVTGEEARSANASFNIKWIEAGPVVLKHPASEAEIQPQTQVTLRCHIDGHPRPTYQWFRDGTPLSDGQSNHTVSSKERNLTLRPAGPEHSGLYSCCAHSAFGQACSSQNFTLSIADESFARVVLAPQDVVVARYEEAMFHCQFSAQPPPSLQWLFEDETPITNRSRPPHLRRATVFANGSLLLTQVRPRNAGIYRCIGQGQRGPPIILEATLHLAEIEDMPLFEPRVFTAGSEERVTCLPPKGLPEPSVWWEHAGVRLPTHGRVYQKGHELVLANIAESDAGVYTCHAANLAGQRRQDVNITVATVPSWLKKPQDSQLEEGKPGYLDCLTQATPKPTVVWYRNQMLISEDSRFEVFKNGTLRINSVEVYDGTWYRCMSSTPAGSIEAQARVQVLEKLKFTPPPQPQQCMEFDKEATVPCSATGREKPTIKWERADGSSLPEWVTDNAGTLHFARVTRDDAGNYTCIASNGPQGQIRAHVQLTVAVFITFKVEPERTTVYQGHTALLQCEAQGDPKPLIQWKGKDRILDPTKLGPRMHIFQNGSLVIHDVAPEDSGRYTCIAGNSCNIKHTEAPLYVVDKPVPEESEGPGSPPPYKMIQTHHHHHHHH
Assay: Biacore (paragraph 369 names ForteBio for FIGS. 7C-7E)
This section presents binders with their documented pKd values.
Lab note: report pKd as minus log10 of the concentration in molar units, number only.

hSC6.41 (antibody, human IgG1, V domains shown, Humanized; also called humanized SC6.41) VH: QVQLVQSGAEVKKPGASVKVSCKASGYTFKDYYMHWVRQAPGQGLEWMGWIDPENGDTEYAPEFQGRVTMTRDTSTSTVYMELSSLRSEDTAVYYCNACNYGSAYGYWGQGTTLTVSS VL: DIVMTQSPLSLPVTPGEPASISCRSSKSLLHTKGDTYLYWFLQKPGQSPQLLIYRMSNRASGVPDRFSGSGSGTDFTLKISRVEAEDVGVYYCMQHLEYPFTFGQGTKLEIKR : 8.68
SC6.24 (antibody, V domains shown, Murine monoclonal antibody, kappa light chain) VH: QVQLQQSGPEVVRPGVSVKISCKGSGYTFTDYAVHWVKLSHAKSLEWIGVISTYNDYTYNNQDFKGKATMTVDKSSSTAYMELARLTSEDSAIYYCARGNSYFYALDYWGQGTSVTVSS VL: DIVLTQSPASLAVSLGQRATISCRASESVDSYGKSFMHWYQQRPGQPPKLLIYRASNLESGIPARFSGSGSRTDFTLTINPVEADDVATYYCQQSNEDPWTFGGGTKLEIK : 9.22
SC6.58 (antibody, V domains shown, Murine monoclonal antibody, kappa light chain) VH: EVKLLESGGGLVQPGGSLKLSCAASGFDFSRYWMSWVRQAPGKGLEWIGDLNPDSSAINYTPSLKDKFIISRDNAKNTLYLQMSKVRSEDTALYYCTLITTLVPYTMDFWGQGTSVTVSS VL: ETTVTQSPASLSMAIGEKVTIRCITNTDIDDDMNWYQQKPGEPPKLLISEGNGLRPGVPSRFSSSGYGTDFVFTIENMLSEDVADYYCLQSDNLPLTFGSGTKLEIK : 9.30
SC6.41 (antibody, V domains shown, Murine monoclonal antibody, kappa light chain) VH: EVQLQQSGAESVRSGASVKLSCTASGLNIKDYYMHWVNLRPEQGLEWIGWIDPENGDTEYAPEFQGKATMTADTSSNTAYLQLSSLTSEDTAVYYCNACNYGSAYGYWGQGTTLTVSS VL: DIVLTQATPSVPVTPGESVSISCRSSKSLLHTKGDTYLYWFLQRPGQSPQLLIYRMSNLASGVPDRFSGSGSGTVFTLRISRVEAEDVGVYYCMQHLEYPFTFGSGTKLEIKR : 9.00

Now, please, on to the next binder.
[ask] Input hSC6.58 (antibody, human IgG1, V domains shown, Humanized; also called humanized SC6.58) VH: EVQLVESGGGLVQPGGSLRLSCAASGFDFSRYWMSWVRQAPGKGLEWIGDLNPDSSAINYVDSVKGRFTISRDNAKNSLYLQMNSLRAEDTAVYYCTLITTLVPYTMDFWGQGTSVTVSS VL: ETTLTQSPAFMSATPGDKVNISCITNTDIDDDMNWYQQKPGEAAILLISEGNGLRPGIPPRFSGSGYGTDFTLTINNIESEDAAYYFCLQSDNLPLTFGSGTKLEIKR , output reported pKd.
[reply] 9.00
